Field: TGI. Provide a value for each of the molecules that follow.
- Tested on: LOX IMVI melanoma
- measurement protocol: NCI tumour cell line growth inhibition, 48 h

Lab book: TGI of CN(c1ccc(C#N)c(Cl)c1)C1CCC(NC(=O)c2ccc(N3CCN(C4CN(c5ccc6c(c5)C(=O)N(C5CCC(=O)NC5=O)C6=O)C4)CC3)cc2)CC1 (stereo unspecified) noted as > 100 µM

Lab book: TGI of Clc1ccccc1NN(Cc1ccncc1)c1ccccc1Cl noted as 30.3 µM

Lab book: TGI of Cc1ccc(S(=O)(=O)c2ccc([N+](=O)[O-])o2)cc1 noted as 2.91 µM

Lab book: TGI of CCOC1OC(=O)[C@H]2[C@@H]1[C@@H]1CC[C@H]2O1 (stereo partly specified) noted as > 100 µM

Lab book: TGI of Cc1c2ccncc2c(C)c2c1c1cc(CO)ccc1n2C noted as 2.1 µM

Lab book: TGI of COc1cc(/C=C\c2ccncc2)cc(OC)c1OC noted as > 100 µM

Lab book: TGI of OC(CCN1CCN(CCOC(c2ccccc2)c2ccccc2)CC1)c1ccc(Br)cc1 (stereo unspecified) noted as 23.5 µM

Lab book: TGI of Cc1cc(C)nc(NS(=O)(=O)c2ccc(NC(=O)c3cccn4c(=O)c5ccccc5nc34)cc2)n1 noted as 91.8 µM

Lab book: TGI of COc1cc(/C=C2\Cc3cc(OC)c(OC)cc3C2=O)cc(OC)c1 noted as > 100 µM

Lab book: TGI of CNC(=S)N/N=C(\C)c1nc2ncccc2[nH]1 noted as > 100 µM

Lab book: TGI of COP(=O)(OC)C(NC=O)P(=O)(OC)OC noted as > 100 µM

Lab book: TGI of CC1=NN(C(=O)c2ccc(Cl)cc2)C(=O)/C1=C/c1ccc(Cl)cc1 noted as > 100 µM

Lab book: TGI of O=C1CSC(c2ccccc2O)N1c1nnc(Cn2ccnc2)o1 (stereo unspecified) noted as 24.8 µM

Lab book: TGI of CCC1C(=O)OCc2c1cc1n(c2=O)C(CC)c2c-1nc1ccccc1c2Cl (stereo unspecified) noted as > 100 µM

Lab book: TGI of c1csc(-c2csc(-c3ccsc3)c2)c1 noted as > 100 µM

Lab book: TGI of O=S(=O)(O)c1cc(O)c2c(O)c(N=Nc3cccc4ccccc34)c(S(=O)(=O)O)cc2c1 noted as > 100 µM

====

- Tested on: UACC-257 melanoma
- measurement protocol: NCI tumour cell line growth inhibition, 48 h
assay readout: GI50

Lab book: GI50 of Oc1c(Cl)cc(Cl)c2cccnc12 noted as 2260 nM

Lab book: GI50 of CN1CCN(c2cc3nc4ccccc4n(-c4ccc(Cl)cc4)c-3cc2=N)CC1 noted as 19200 nM

Lab book: GI50 of Cc1cccc2c(Nc3ccc(NS(C)(=O)=O)cc3)c3ccc([N+](=O)[O-])cc3nc12 noted as 1530 nM

Lab book: GI50 of COc1ccc(Oc2ccccc2NC(=O)CNC(=O)c2cccc3ccccc23)cc1 noted as > 25000 nM

Lab book: GI50 of CCOC(=O)C1=C(C)N2C(=NC3=C(CCC/C3=C\c3ccc(Cl)cc3)C2c2ccc(Cl)cc2)S1 (stereo unspecified) noted as 2050 nM

Lab book: GI50 of CCOC1OC(=O)[C@H]2[C@@H]1[C@@H]1CC[C@H]2O1 (stereo partly specified) noted as > 100000 nM
